Target: T1, Anti-PSMA Fab
T1 construct: also called 006 PSMA Fab
Assay: clonal phage ELISA on captured PSMA Fab, wells pre-incubated with PSMA antigen as competitor, anti-M13-HRP detection;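 note: crude clonal phage supernatants added without washing after the PSMA preincubation, comparison wells received blocking buffer alone without PSMA, bound phage read after washing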
Where no end group is shown, it is not given here.
property label: Phage binding ELISA signal, Anti-PSMA Fab with PSMA antigen
Output: the number by itself.

binder | obs value
EQVLCRPEWMCIGF (Clone of the Peptide-180 optimisation library, tested as clonal phage supernatant) [Phage-3789] | 0.0856
DLIYCRPAWMCDGF (Clone of the Peptide-180 optimisation library, tested as clonal phage supernatant) [Phage-3795] | 0.0679
MSMYCVPTWMCNGF (Clone of the Peptide-180 optimisation library, tested as clonal phage supernatant) [Phage-3798] | 0.0602
MLRSCVPPWMCAGF (cysteine pairing not given here; also: displayed on phage as fusion to pIII, junction not given here, Clone of the Peptide-180 optimisation library, tested as clonal phage supernatant) [Phage-3788] | 0.0821
LELACRPMWMCQGF (Clone of the Peptide-180 optimisation library, tested as clonal phage supernatant) [Phage-3799] | 0.0709
FAFDCVPKWMCTGF (Clone of the Peptide-180 optimisation library, tested as clonal phage supernatant) [Phage-3793] | 0.0829

--- query ---
Input HMQYCIPQWMCHGF (Clone of the Peptide-180 optimisation library, tested as clonal phage supernatant) [Phage-3792] . Output Phage binding ELISA signal, Anti-PSMA Fab with PSMA antigen: 0.0825

# credit: patent US20260242478A1
